Values were extracted from patent US20110172296A1.

This listing pairs substances with measured percent inhibition of TGF-beta1.
- Test system: human TGF-beta1 mRNA
- TEST_METHOD_NOTES: Dose-dependent confirmation of antisense inhibition of human TGF-beta1 in HuVEC cells after large-scale synthesis, Lipofectamine 2000, 0.007-15 nM (Example 5)
- Format: cell-based
- SETUP_CONDITIONS: 15 nM, Lipofectamine 2000
In the oligonucleotide strings, read from the 5' end, every base follows the letter of its sugar. An asterisk marks phosphorothioate; unmarked linkages are phosphodiester. Other units and linkages are bracketed, terminal groups are in braces. A string of capitals states the bases alone. e = 2'-O-(2-methoxyethyl) (MOE); [5mC] = 5-methylcytosine; d = 2'-deoxy (DNA)
MEASUREMENT_NAME: percent inhibition of TGF-beta1

- 414040 (antisense e[5mC]*eT*d[5mC]*dT*d[5mC]*dT*d[5mC]*d[5mC]*dA*dT*d[5mC]*dT*dT*dT*dA*eA*eT*eG*eG*eG) [compound 414040]: 93%
- 414035 (antisense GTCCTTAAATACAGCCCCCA; sugars from the 5' end e2 d13 e5, backbone and methylation of C not given here) [compound 414035]: 91%
- 413982 (antisense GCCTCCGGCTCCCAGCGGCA; sugars from the 5' end e2 d13 e5, backbone and methylation of C not given here) [compound 413982]: 92%
- 414036 (antisense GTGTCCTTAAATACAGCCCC; sugars from the 5' end e2 d13 e5, backbone and methylation of C not given here) [compound 414036]: 90%
